Each recorded value in this set is attributed to the OPERA property sets (Mansouri et al. 2018).

Recorded melting point by entry
Observation type: melting point (°C)

C[C@H]1C[C@@H]2[C@H]([C@@H](O)C[C@@]3(C)[C@H]2CC[C@]3(O)C(=O)CO)[C@@]2(C)C=CC(=O)C=C12
232
Clc1ccc2c(c1)Oc1cc(Cl)c(Cl)cc1O2
162
CC(C)COC(=O)C(C)Oc1ccc(Oc2ccc(Cl)cc2)cc1 (stereo not drawn)
39.5
CCCCc1cc2c(=O)c(C(=O)OC)c[nH]c2cc1OCc1ccccc1
288
CCCc1ccccc1
-99.5
C=Cc1cccc(C=C)c1
-52.3
CCOc1ccccc1[N+](=O)[O-]
2.2
O=S(=O)(Cl)c1cccs1
28
OCc1ccc(F)cc1
23
CCOC(CN)OCC
-78
COc1c(OC)c(OC(C)=O)c2cc(Cl)ccc2c1OC(C)=O
91.5
Oc1ccccc1C(F)(F)F
45.5
C[C@]12CC[C@H]3[C@@H](CCC4=C(O)C(=O)CC[C@@H]43)[C@@H]1CC[C@@H]2O
189
